Below is a list of entries, each paired with its recorded IC50 value.
- SYSTEM UNDER TEST: FLuc-C-HiBiT (Photinus pyralis, UniProt P08659)
- Construct: firefly luciferase with C-terminal HiBiT tag, E. coli expressed
- Sequence (P08659 whole entry, looked up): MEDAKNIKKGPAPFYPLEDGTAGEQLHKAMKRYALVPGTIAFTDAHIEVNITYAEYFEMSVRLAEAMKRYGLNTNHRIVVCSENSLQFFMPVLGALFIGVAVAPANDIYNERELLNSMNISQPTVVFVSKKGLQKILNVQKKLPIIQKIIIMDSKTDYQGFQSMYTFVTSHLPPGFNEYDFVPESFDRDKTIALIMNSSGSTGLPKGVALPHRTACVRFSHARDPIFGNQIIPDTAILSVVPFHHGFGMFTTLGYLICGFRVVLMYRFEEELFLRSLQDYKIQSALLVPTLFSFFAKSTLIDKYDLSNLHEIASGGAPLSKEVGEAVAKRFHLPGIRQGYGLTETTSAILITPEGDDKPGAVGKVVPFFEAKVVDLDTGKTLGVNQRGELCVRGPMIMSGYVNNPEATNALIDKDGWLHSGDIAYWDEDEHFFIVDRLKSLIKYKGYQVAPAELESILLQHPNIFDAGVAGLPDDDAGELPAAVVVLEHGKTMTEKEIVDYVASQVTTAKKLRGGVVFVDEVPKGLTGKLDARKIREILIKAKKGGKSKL
- EXPERIMENT SUMMARY: biochemical
- CONDITION NOTES: enzyme activity, 10 uM ATP; read-out: IC50 or SDR50 (mM) / FLuc E

[
  {
    "COMPOUND": "COc1ccc(-c2ccc3c(c2)C(=O)N2CC[C@H](NC(=O)c4cccc(F)c4)[C@H]2C(=O)N3)cc1",
    "IC50": "0.00989 mM"
  },
  {
    "COMPOUND": "Cc1ccc(C2Cn3nnc(C(=O)N4CCC(C(=O)NCCc5cccs5)CC4)c3CO2)cc1 (stereo not drawn)",
    "IC50": "0.00989 mM"
  },
  {
    "COMPOUND": "CN(C)c1cccc(C(=O)Nc2ccc3c(N4CCOCC4)ncnc3c2)c1",
    "IC50": "0.00989 mM"
  }
]

These data points were gathered from paper PMC12064818.
